# System: T-47D breast
# assay-explanation: NCI-60 one-dose screen, 48 h (100 = growth as untreated, 0 = no growth, -100 = all killed)
# experimental-conditions: 10 µM unless noted
Compounds without any hit were thinned out: in the full panel of roughly 83,000, 20% have a hit.
Quick rule for you: growth under 20% gets Y, anything else gets N.

Take a look at these entries with their results.
Query: For this molecule, is growth lower than 20%? `CCOc1cc(F)c([N+](=O)[O-])cc1[N+](=O)[O-]`
Reply: N

Query: For this molecule, is growth lower than 20%? O=[N+]([O-])CC(O)c1ccccc1 (configuration not stated)
Reply: N

Query: For this molecule, is growth lower than 20%? `COc1cc(OC)c(/C=C/c2c3ccccc3cc[n+]2C)c(OC)c1`
Reply: Y

Query: For this molecule, is growth lower than 20%? `CCCCCCCCCCCCN1C(C)=CS/C1=C\C=C\c1scc(C)[n+]1CCCCCCCCCCCC`
Reply: Y

Query: For this molecule, is growth lower than 20%? `C(=N\Nc1ccc2ccccc2n1)/c1ccccn1`
Reply: Y

Query: For this molecule, is growth lower than 20%? COc1cc(NCc2ccc3nc(N)nc(N)c3c2C)cc(OC)c1OC (tested in a mixture with another compound)
Reply: N

---
Query: For this molecule, is growth lower than 20%? `NC(=S)Nc1ccc2c(c1)Cc1ccccc1-2`
Reply: N

Query: For this molecule, is growth lower than 20%? CN1CCC(CN2c3ccccc3Sc3ccccc32)C1 (configuration not stated)
Reply: N

Query: For this molecule, is growth lower than 20%? `O=C(c1ccccc1)c1ccc(O)c2ncccc12`
Reply: Y

Query: For this molecule, is growth lower than 20%? `NC(=S)N/N=C/c1ncccc1O`
Reply: N

Query: For this molecule, is growth lower than 20%? `O=C1/C(=C/c2ccccn2)CCc2ccccc21`
Reply: N

Query: For this molecule, is growth lower than 20%? `CC(C)Nc1ccc(Nc2ccc(NC(C)C)cc2)cc1`
Reply: N

###

# Tested on: SN12C renal
# assay-explanation: NCI-60 one-dose screen, 48 h (100 = growth as untreated, 0 = no growth, -100 = all killed)
# experimental-conditions: 10 µM unless noted
The panel holds about 83,000 compounds, 20% with a hit somewhere; the sample as a whole holds those more often.
quantity-kind: growth (%)
Your answer is read as %, so omit the unit and give the number.

Solved entries (count: 2):
The measured growth associated with `CCCCCCCCCCCCSC(=N)N` reads 51.3

The measured growth associated with `Clc1ccc(-n2ncc3c(NCCCN4CCOCC4)ncnc32)cc1` reads 99.1

---
The measured growth associated with Cc1ccccc1N=C(N)Nc1ccccc1C (tested in a mixture with another compound) reads 82.8

The measured growth associated with `CC(C)(C)c1ccc(O)c(-c2ccccc2)c1` reads 109

The measured growth associated with `O=C(c1ccccc1)c1ccc(O)c2ncccc12` reads 31.6

The measured growth associated with `Cc1ccc2cccc(OC(=O)Nc3cccc(C(F)(F)F)c3)c2n1` reads 61.5

###

Reported growth values for the following compounds.
# System: OVCAR-5 ovarian
# assay-explanation: NCI-60 one-dose screen, 48 h (100 = growth as untreated, 0 = no growth, -100 = all killed)
# experimental-conditions: 10 µM unless noted
Compounds without any hit were thinned out: in the full panel of roughly 83,000, 20% have a hit.
Your answer is read as %, so omit the unit and give the number.

The measured growth associated with `O=S(=O)(O)c1cnccn1` reads 96.6

###

# Tested on: COLO 205 colon
# assay-explanation: NCI-60 one-dose screen, 48 h (100 = growth as untreated, 0 = no growth, -100 = all killed)
# experimental-conditions: 10 µM unless noted
The panel holds about 83,000 compounds, 20% with a hit somewhere; the sample as a whole holds those more often.
Quick rule for you: growth under 20% gets true, anything else gets false.

Take a look at these entries with their results.
Query: For this molecule, is growth lower than 20%? `O=[N+]([O-])c1ccc([I+]c2ccccc2)cc1`
Reply: true

Query: For this molecule, is growth lower than 20%? OC(CSc1ccccc1)CN1CCN(c2ccc(Cl)cc2)CC1 (stereo not drawn)
Reply: false

Query: For this molecule, is growth lower than 20%? `Cn1c(-c2ccccc2)c(/C=C/C2=[N+](C)c3ccccc3C2(C)C)c2ccccc21`
Reply: true

Query: For this molecule, is growth lower than 20%? `O=C(c1ccccc1)N(CCCl)C(=O)N(CCCl)C(=O)c1ccccc1`
Reply: false

Query: For this molecule, is growth lower than 20%? `O=C1/C(=C/c2ccccc2)CCC/C1=C\c1ccccc1`
Reply: false

---
Query: For this molecule, is growth lower than 20%? `COc1cc(NC(=O)C2=C(C)NC(C)=C(C(=O)Nc3cc(OC)c(Cl)cc3OC)C2c2cccc([N+](=O)[O-])c2)c(OC)cc1Cl`
Reply: false

Query: For this molecule, is growth lower than 20%? `COc1cc(/C=C/c2ccnc3ccccc23)cc(OC)c1OC`
Reply: false

Query: For this molecule, is growth lower than 20%? `O=C(Nc1ccc(Cl)c(Cl)c1)Nc1ccccc1O`
Reply: false

###

# Test system: BT-549 breast
# assay-explanation: NCI-60 one-dose screen, 48 h (100 = growth as untreated, 0 = no growth, -100 = all killed)
# experimental-conditions: 10 µM unless noted
About 83,000 compounds went through this panel and 20% of them were active in at least one assay; those are over-represented in the sample as a whole.
Quick rule for you: growth at 90% or higher means t, lower means f.

Query: Kindly determine if growth recorded for `COc1ccc(NC(=O)/C(=C/N2C(=O)/C(=C/c3ccc(OC)c(OC)c3)NC2=S)C(C)=O)cc1` is above or exactly 90%.
Reply: f

Query: Kindly determine if growth recorded for `CCCCCCCCCCCC1=NCCCN1CCCC` is above or exactly 90%.
Reply: t

Query: Kindly determine if growth recorded for `COc1cc(OC)c(/C=C/c2c3ccccc3cc[n+]2C)c(OC)c1` is above or exactly 90%.
Reply: f

Query: Kindly determine if growth recorded for CC(O)C(O)C(O)C(O)C(O)C(=O)NNc1ccccc1 (stereo not given) is above or exactly 90%.
Reply: t

Query: Kindly determine if growth recorded for `CC(C)=C1C=C2CC[C@@H]3[C@](C)(CCC[C@@]3(C)C(=O)O)[C@H]2CC1` is above or exactly 90%.
Reply: t

Query: Kindly determine if growth recorded for CCOc1ccc(C(C[N+](=O)[O-])Sc2ccccc2N)cc1 (stereo not given) is above or exactly 90%.
Reply: f

---
Query: Kindly determine if growth recorded for CCCCCCCCCCCCCCCC[N+]1(C)CCCC1c1cccnc1 (stereo not given) is above or exactly 90%.
Reply: f

Query: Kindly determine if growth recorded for `CC(C)(C)c1ccc(O)c(Br)c1` is above or exactly 90%.
Reply: t

Query: Kindly determine if growth recorded for CC(CSc1n[nH]c(=S)s1)c1ccccc1 (stereo not given) is above or exactly 90%.
Reply: t

Query: Kindly determine if growth recorded for `O=C(CCl)N1c2ccccc2Sc2c1ccc1ccccc21` is above or exactly 90%.
Reply: f

Query: Kindly determine if growth recorded for `CN(Cc1ccccc1)c1ccc(SC#N)cc1` is above or exactly 90%.
Reply: f

Query: Kindly determine if growth recorded for `CCc1cnc2ccccc2c1/C=C/c1ccc(N(C)C)cc1` is above or exactly 90%.
Reply: f

Query: Kindly determine if growth recorded for `Cc1cc(C(N)=O)cc(C)c1C(=O)OCCCl` is above or exactly 90%.
Reply: t

Query: Kindly determine if growth recorded for `NC(=S)N/N=C\c1nccc2c(N)cccc12` is above or exactly 90%.
Reply: f

Query: Kindly determine if growth recorded for `CCOC(=O)NC(/C=C/c1ccccc1)NC(=O)OCC` is above or exactly 90%.
Reply: t

Query: Kindly determine if growth recorded for `CCCCCCCCCCCCCCCCCC1=NCCCN1CCO` is above or exactly 90%.
Reply: t

Query: Kindly determine if growth recorded for `C/C(=N\NC(=S)N1CC2CCC(CC2)C1)c1ccccn1` is above or exactly 90%.
Reply: f

###

# Tested on: CCRF-CEM leukemia
# assay-explanation: NCI-60 one-dose screen, 48 h (100 = growth as untreated, 0 = no growth, -100 = all killed)
# experimental-conditions: 10 µM unless noted
This is part of a sample that, as a whole, favours compounds with a hit. Of some 83,000 tested, about 20% had one in any assay.
Reported growth values for the following compounds.
Your answer is read as %, so omit the unit and give the number.

Solved entries (count: 8):
The measured growth associated with `O=C1/C(=C/c2ccccn2)CCc2ccccc21` reads 51.6

The measured growth associated with `Cc1ccc(/C=C2\CNC/C(=C\c3ccc(C)cc3)C2=O)cc1` reads -3.56

The measured growth associated with `O=C(OC12CC3CC(CC(C3)C1)C2)c1ccc(NCc2cc(O)ccc2O)cc1` reads -23.7

The measured growth associated with `Clc1ccccc1C(c1ccccc1)(c1ccccc1)n1ccnc1` reads 21.5

The measured growth associated with `Cc1nc([N+](=O)[O-])c(Sc2nncc(-c3ccccc3)n2)n1C` reads 45.1

The measured growth associated with `O=C(c1ccc(O)c(Br)c1)c1ccc(O)c(Br)c1` reads 109

The measured growth associated with CCCCCCCCC(=O)OCCCC(CCC(CCC1CCCO1)OC(=O)CCCCCCCC)OC(=O)CCCCCCCC (stereo unspecified) reads 87.6

The measured growth associated with `Cc1ccccc1NC(=O)Cc1csc2[n+]1C(=O)/C(=C/c1ccc([N+](=O)[O-])cc1)S2` reads 99.1

---
The measured growth associated with `COC(=O)C(=[N+]=[N-])C(=O)c1ccc([N+](=O)[O-])o1` reads 83.9

The measured growth associated with `CCc1cccc(CC)c1N1C(=O)C=CC1=O` reads 17

The measured growth associated with COc1ccc2c(c1OC)OCC(CN(C)C)C2=O (stereo unspecified) reads 60
